Tested on: laccase (NS51003)
Assay: Chicago Blue (Direct Blue 1) dye bleaching assay for laccase mediators
Type: biochemical, Aspergillus sp.
Details: pH 5.5; potential mediator 0.1 micromole/ml; decrease in absorbance at 610 nm
Property: ΔmA610 (3 min)
Lab note: record just the number, no unit beside it.

Name the reported ΔmA610 (3 min) value associated with the compound O=C(O)C=Cc1ccccc1O [2-Hydroxycinnamic acid]
5

Name the reported ΔmA610 (3 min) value associated with the compound Nc1ccccn1
3

Name the reported ΔmA610 (3 min) value associated with the compound COc1ccc(CO)cc1OC
3

Name the reported ΔmA610 (3 min) value associated with the compound C(=NCc1ccccc1)c1ccccc1
28

Name the reported ΔmA610 (3 min) value associated with the compound COc1cc(C=CC(=O)O)ccc1O [4-Hydroxy-3-methoxycinnamic acid]
441

Name the reported ΔmA610 (3 min) value associated with the compound O=C(O)C=Cc1ccc([N+](=O)[O-])cc1
0

Name the reported ΔmA610 (3 min) value associated with the compound Nc1nc(N)nc(N)n1
128

Name the reported ΔmA610 (3 min) value associated with the compound CN(C)c1ccc(C=CC(=O)O)cc1
519

Name the reported ΔmA610 (3 min) value associated with the compound CCOC(=O)c1ccccc1O [Ethyl Salicylate]
2

Name the reported ΔmA610 (3 min) value associated with the compound O=C(O)C=Cc1ccc(Cl)cc1
13

Name the reported ΔmA610 (3 min) value associated with the compound COc1ccc(C=CC(=O)O)cc1O [3-Hydroxy-4-methoxycinnamic acid]
94

* * *

Tested on: laccase (NS51003)
Test: Chicago Blue (Direct Blue 1) dye bleaching assay for laccase mediators
Type: biochemical, Aspergillus sp.
Conditions: pH 5.5; potential mediator 0.1 micromole/ml; decrease in absorbance at 610 nm
Property: ΔmA610 (3 min)

Name the reported ΔmA610 (3 min) value associated with the compound O=C(O)C=Cc1ccc(O)cc1 [4-Hydroxycinnamic acid]
42

Name the reported ΔmA610 (3 min) value associated with the compound O=C1Nc2ccccc2C1=O
6

Name the reported ΔmA610 (3 min) value associated with the compound COc1ccc(C=CC(=O)O)cc1
6

* * *

Give measured ΔmA610 (3 min) for each item. Keep answers brief.
Tested on: laccase (NS51003)
Assay: Chicago Blue (Direct Blue 1) dye bleaching assay for laccase mediators
Assay type: biochemical, Aspergillus sp.
Conditions: pH 5.5; potential mediator 0.1 micromole/ml; decrease in absorbance at 610 nm
Procedure: The Chicago Blue Dye, also known as Direct Blue 1 or DB 1, was used to identify these compounds. […] Each of the test compounds (i.e., potential mediators) was dissolved in water, or in ethanol if the potential mediator was not water soluble, and then mixed with a phosphate buffer and a Chicago Blue solution. […] The change in the absorbance at A610 nm was measured immediately using a UV-VIS spectrophotometer (UV-1201, Shimadzu Scientific Instruments) after the enzyme was added. […]
Lab note: record just the number, no unit beside it.

ΔmA610 (3 min) of O=C(O)C=Cc1cccc(Cl)c1 [3-Chlorocinnamic acid] on laccase (NS51003)?
8

ΔmA610 (3 min) of COc1cc(C=CC(=O)O)cc(OC)c1O [3,5-Dimethoxy-4-hydroxycinnamic acid] on laccase (NS51003)?
491

ΔmA610 (3 min) of COc1ccc(C=CC(=O)O)cc1OC [3,4-Dimethoxycinnamic acid] on laccase (NS51003)?
0

ΔmA610 (3 min) of COc1cc(C=CC(=O)O)cc(OC)c1OC [3,4,5-Trimethoxycinnamic acid] on laccase (NS51003)?
5

ΔmA610 (3 min) of Nc1ccc(C=CC(=O)O)cc1 [4-Aminocinnamic acid] on laccase (NS51003)?
43

ΔmA610 (3 min) of O=C(O)C=Cc1ccccc1 [Cinnamic acid] on laccase (NS51003)?
3

ΔmA610 (3 min) of O=C(O)C=Cc1ccccc1Cl [2-Chlorocinnamic acid] on laccase (NS51003)?
9

ΔmA610 (3 min) of O=C(O)c1ccccc1O [Salicylic acid] on laccase (NS51003)?
11

ΔmA610 (3 min) of O=C(O)C=Cc1cccc(O)c1 [3-Hydroxycinnamic acid] on laccase (NS51003)?
7

ΔmA610 (3 min) of COc1cccc(C=CC(=O)O)c1 [3-Methoxycinnamic acid] on laccase (NS51003)?
4
